Assembled from different publications: Ki for UniProt P61964.
Reported Ki maps to class as: lo (below 200 nM), mid (200 nM to below 1000 nM), hi (1000 nM or more)

> print(dat)
                                    compound  experimental.target  qualitative.label
 1  COc1ccc(Br)cc1S(=O)(=O)Nc1cc(Cl)cc(C(=O)NCCN)c1O       UniProt P61964                 hi
 2  COc1cc(N2CCC(OC)CC2)c2nc(C)cc(N3CCc4c(cc(Cn5ccnc5)cc4-c4cn(C)nc4C(F)(F)F)C3=O)c2c1       UniProt P61964                 lo
 3  O=C(Nc1nc[nH]n1)c1cc(Cl)cc(NS(=O)(=O)c2cc(Br)ccc2O)c1       UniProt P61964                mid
 4  CS(=O)(=O)c1cc(Cl)cc(NS(=O)(=O)c2cc(Br)cc3c2OCC3)c1O       UniProt P61964                mid
 5  CNC(=O)c1cc(Cl)cc(NS(=O)(=O)c2cc(Br)cc(Cl)c2O)c1       UniProt P61964                mid
 6  CNC(=O)c1cc(OC(F)(F)F)cc(NS(=O)(=O)c2cc(Br)cc3cccnc23)c1O       UniProt P61964                 hi
 7  CCc1cnc2cccc(N3CCc4c(cc(Cn5ccnc5)cc4-c4cn(C)nc4C(F)(F)F)C3=O)c2c1       UniProt P61964                 lo
 8  O=C(NCCN1CCOCC1)c1cc(C2CC2)cc(NS(=O)(=O)c2cc(Br)ccc2O)c1O       UniProt P61964                 hi
 9  CS(=O)(=O)c1cc(NS(=O)(=O)c2cc(Br)cc(Cl)c2O)cc(C2(C#N)CCC2)c1       UniProt P61964                 lo
10  CCn1cc(-c2cc(Cn3ccnc3C)cc3c2CCN(c2cn(C)c4ccc(OC)cc24)C3=O)c(C(F)(F)F)n1       UniProt P61964                 lo
11  NC(=O)C(NC(=O)c1cc(OC(F)(F)F)cc(NS(=O)(=O)c2cc(Br)ccc2O)c1O)c1ccccn1 (centres unmarked)       UniProt P61964                mid
12  COc1ccc(Br)cc1S(=O)(=O)Nc1cc(Cl)cc([N+](=O)[O-])c1O       UniProt P61964                 hi
13  Cc1cc(OCCN(C)C)c2cncc(N3CCc4c(cc(Cn5ccnc5)cc4-c4cn(C)nc4C(F)(F)F)C3=O)c2c1       UniProt P61964                 lo
14  CS(=O)(=O)c1cc(C2CC2)cc(NS(=O)(=O)c2cc(Br)ccc2O)c1O       UniProt P61964                mid
15  O=S(=O)(Nc1cn(CC2CCCO2)cn1)c1cc(Br)cc(Cl)c1O (centres unmarked)       UniProt P61964                 hi
16  CN(C)CCCS(=O)(=O)c1cc(Cl)cc(NS(=O)(=O)c2cc(Br)ccc2O)c1       UniProt P61964                mid
17  CCc1cc(N2CCN(C)CC2)c2nc(C)cc(N3CCc4c(cc(Cn5ccnc5)cc4-c4cn(C)nc4C(F)(F)F)C3=O)c2c1       UniProt P61964                 lo
18  COCCNC(=O)c1cc(C2CC2)cc(NS(=O)(=O)c2cc(Br)ccc2O)c1F       UniProt P61964                 hi
19  Cc1nc2cccc(N3CCc4c(cc(Cn5ccnc5)cc4-c4cn(C)nc4C(F)(F)F)C3=O)c2o1       UniProt P61964                 lo
20  CNC(=O)c1c(O)c(NS(=O)(=O)c2cc(Br)cc(Cl)c2O)cc(C2CC2)c1F       UniProt P61964                 lo
21  CNS(=O)(=O)c1cc(Cl)cc(NS(=O)(=O)c2cc(Br)cc(Cl)c2O)c1O       UniProt P61964                 hi
22  COc1ccc(Br)cc1S(=O)(=O)Nc1cc(Cl)cc(C(=O)N(C)C)c1O       UniProt P61964                 hi
23  CNC(=O)c1cc(NS(=O)(=O)c2cc(Br)ccc2O)cc(C2CC2)c1F       UniProt P61964                mid
24  O=C(O)c1c(O)c(NS(=O)(=O)c2cc(Br)cc(Cl)c2O)cc(C2CC2)c1F       UniProt P61964                mid
25  CNC(=O)c1cc(C2CC2)cc(NS(=O)(=O)c2cc(Br)ccc2O)c1F       UniProt P61964                mid
26  CCc1cc(C(=O)NCCN(C)C)c2nc(C)cc(N3CCc4c(cc(Cn5ccnc5)cc4-c4cn(C)nc4C(F)(F)F)C3=O)c2c1       UniProt P61964                 lo
27  O=S(=O)(Nc1cn(C2CCCC2)cn1)c1cc(Br)cc(Cl)c1O       UniProt P61964                 lo
28  CCn1cc(-c2cc(Cn3ccnc3)cc3c2CCN(c2cccc4ncc(OC)cc24)C3=O)c(C(F)(F)F)n1       UniProt P61964                 lo
29  COc1ccc(Br)cc1S(=O)(=O)Nc1cc(Cl)cc(C(=O)NC2CCOCC2)c1O       UniProt P61964                 hi
